Biological target: T1, TNFR1 (Homo sapiens, UniProt P19438)
T1 chain: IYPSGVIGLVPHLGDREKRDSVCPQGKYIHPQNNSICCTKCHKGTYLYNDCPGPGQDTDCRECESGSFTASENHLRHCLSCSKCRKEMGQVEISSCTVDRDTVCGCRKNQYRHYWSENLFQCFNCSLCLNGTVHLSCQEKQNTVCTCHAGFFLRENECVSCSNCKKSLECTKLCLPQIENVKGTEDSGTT
Experiment: yeast display SC50
Readings of apparent Kd (screen) for the listed binders
recorded.endpoint: apparent Kd (screen)

>  <binder>
Q34Y (designed binder) MTLQELLREEALRRAEAEAFRYALELLAEKFPEYKEYLLDLAEEIESQIRSLSGVDVEDVRKFLDKEWAWVKELLAEHPAELAEVEAARAARLAELRAEVEAKVAA

>  <result>
0.539 nM

$$$$
>  <binder>
K35M (designed binder) MTLQELLREEALRRAEAEAFRYALELLAEKFPEQMEYLLDLAEEIESQIRSLSGVDVEDVRKFLDKEWAWVKELLAEHPAELAEVEAARAARLAELRAEVEAKVAA

>  <result>
0.446 nM

$$$$
>  <binder>
Q48P (designed binder) MTLQELLREEALRRAEAEAFRYALELLAEKFPEQKEYLLDLAEEIESPIRSLSGVDVEDVRKFLDKEWAWVKELLAEHPAELAEVEAARAARLAELRAEVEAKVAA

>  <result>
3.99 nM

$$$$
>  <binder>
I49R (designed binder) MTLQELLREEALRRAEAEAFRYALELLAEKFPEQKEYLLDLAEEIESQRRSLSGVDVEDVRKFLDKEWAWVKELLAEHPAELAEVEAARAARLAELRAEVEAKVAA

>  <result>
0.593 nM

$$$$
